System: 786-O-HIF2α-Luc cells
experimental-protocol: Luciferase assay (HIF2α reporter gene cells)
Format: cell-based
particulars: 18-20 h, luminescence, class symbols
pIC50: −log10 of the molar value.
Consider the following compounds; for each one, report its pIC50.

input: Which pIC50 is reported for this compound? O=S(=O)(c1cn(-c2ccc(F)c(C(F)F)c2)c2c1[C@H](O)C(F)(F)CC2)C(F)(F)F
output: ≥ 7.00

input: What value of pIC50 has been reported for the following compound? O=S(=O)(c1cn(-c2ccc(F)c(C(F)F)c2)c2c1[C@H](O)CCC2)C(F)F
output: 6.30 to 7.00

input: Any idea what pIC50 was measured for N#Cc1cc(-n2cc(S(=O)(=O)CF)c3c2CCC(F)(F)[C@H]3O)ccc1F ?
output: 6.30 to 7.00

input: Recorded pIC50 for N#Cc1ccc(-n2cc(C(F)(F)F)c3c2CCC(F)C3O)cc1C(F)F (centres unmarked) , please?
output: ≥ 7.00

input: Name the recorded pIC50 for CS(=O)(=NC#N)c1cn(-c2ccc(F)c(C(F)F)c2)c2c1[C@H](O)C(F)(F)CC2 (some centres unmarked) .
output: 6.30 to 7.00

----------
Test system: VEGFA
experimental-protocol: VEGFA ELISA assay (IC50)
Assay type: cell-based
particulars: Homo sapiens, 786-0; 786-O cells, 24 h, VEGFA in culture supernatant by ELISA; class symbols
Answer each item with its documented IC50.

input: Would you mind telling me what IC50 value was observed for CS(=O)(=O)c1cn(-c2ccc(Cl)c(C#N)c2)c2c1[C@H](O)C(F)(F)CC2 ?
output: ≤ 500 nM

input: Param item = N#Cc1cc(-n2cc(C(F)(F)F)c3c2CCC(F)(F)C3O)cc(F)c1F (stereo not drawn) ; retrieve measured IC50.
output: ≤ 500 nM

input: // returns reported IC50 for input N#Cc1cc(-n2cc(C(F)(F)C#N)c3c2CCC(F)(F)C3O)ccc1F (stereo not drawn)
output: ≤ 500 nM
